- Tested on: MDA-MB-468 cells
- assay protocol: In vitro cytotoxicity assay (CellTiter-Glo)
- Assay type: cell-based, human
- experimental setup: MDA-MB-468, 72 hrs
pIC50: −log10 of the molar value.

[
  {
    "compound structure": "COc1cc2cc(c1Cl)N(C)C(=O)C[C@H](OC(=O)[C@H](C)N(C)C(=O)CCS)[C@]1(C)O[C@H]1[C@H](C)[C@@H]1C[C@@](O)(NC(=O)O1)[C@H](OC)/C=C/C=C(\\C)C2",
    "assayed system": "MDA-MB-468 cells",
    "pIC50": 7.68
  }
]
